- test_system: PI3Kβ (Homo sapiens)
- Construct: His tag (pFastbac HTa vector) (N); FLAG (N); made in house; host or cells: Sf21 insect cells (baculovirus)
- Sequence (P42338 whole entry, one chain of several): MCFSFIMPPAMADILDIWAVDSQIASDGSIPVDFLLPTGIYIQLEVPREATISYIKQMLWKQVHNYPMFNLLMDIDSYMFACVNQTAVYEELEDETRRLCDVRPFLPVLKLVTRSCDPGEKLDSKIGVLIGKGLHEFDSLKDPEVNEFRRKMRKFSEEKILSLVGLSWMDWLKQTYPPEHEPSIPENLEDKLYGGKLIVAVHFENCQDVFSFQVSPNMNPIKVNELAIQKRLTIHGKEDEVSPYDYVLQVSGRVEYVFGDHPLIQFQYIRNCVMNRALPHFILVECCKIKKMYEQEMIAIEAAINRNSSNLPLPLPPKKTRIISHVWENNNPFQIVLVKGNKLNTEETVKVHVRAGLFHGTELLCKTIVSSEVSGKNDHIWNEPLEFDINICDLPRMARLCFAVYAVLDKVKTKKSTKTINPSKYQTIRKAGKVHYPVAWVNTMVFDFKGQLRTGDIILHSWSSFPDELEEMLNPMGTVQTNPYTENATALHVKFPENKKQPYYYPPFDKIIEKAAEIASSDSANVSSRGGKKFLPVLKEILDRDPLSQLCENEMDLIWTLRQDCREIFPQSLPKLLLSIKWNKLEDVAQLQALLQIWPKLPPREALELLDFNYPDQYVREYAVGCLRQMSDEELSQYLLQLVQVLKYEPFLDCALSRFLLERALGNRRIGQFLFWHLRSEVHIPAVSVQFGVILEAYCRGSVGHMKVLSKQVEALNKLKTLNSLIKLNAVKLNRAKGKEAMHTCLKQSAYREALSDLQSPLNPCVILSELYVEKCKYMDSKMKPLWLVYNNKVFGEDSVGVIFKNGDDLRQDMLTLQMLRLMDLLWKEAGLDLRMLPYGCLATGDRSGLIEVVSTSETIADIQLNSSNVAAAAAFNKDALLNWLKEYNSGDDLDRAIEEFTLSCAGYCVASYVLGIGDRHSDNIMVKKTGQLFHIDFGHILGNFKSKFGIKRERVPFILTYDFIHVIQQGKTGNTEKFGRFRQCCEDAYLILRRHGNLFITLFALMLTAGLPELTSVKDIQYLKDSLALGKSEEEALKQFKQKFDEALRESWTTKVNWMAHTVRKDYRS
- method_summary: Biochemical assay using 200 μM ATP, Beta
property: pIC50
Please report pIC50 as the negative decimal logarithm of the molar concentration, giving only the number.

Illustrative cases are given below, each with its answer.
{"columns": ["smiles_input", "test_system", "pIC50"],
 "data": [
  ["O=c1c2cc3ccccc3cc2nc(CSc2ncnc3[nH]cnc23)n1-c1ccccc1Cl", "PI3Kβ (Homo sapiens)", 4.00],
  ["Nc1ncnc2c1ncn2Cc1nc2cccc(Cl)c2c(=O)n1-c1ccccc1Cl", "PI3Kβ (Homo sapiens)", 4.36],
  ["Cc1cccc2nc(CSc3ncnc4[nH]cnc34)n(-c3ccccc3C(C)C)c(=O)c12", "PI3Kβ (Homo sapiens)", 4.47]
]}

Okay, next one:
Memo: Nc1ncnc2c1ncn2Cc1nc2cccc(Cl)c2c(=O)n1-c1ccccc1F , reported pIC50: 3.97

###

- test_system: PI3Kδ (Homo sapiens, UniProt O00329, S253N)
- Sequence (O00329 whole entry S253N): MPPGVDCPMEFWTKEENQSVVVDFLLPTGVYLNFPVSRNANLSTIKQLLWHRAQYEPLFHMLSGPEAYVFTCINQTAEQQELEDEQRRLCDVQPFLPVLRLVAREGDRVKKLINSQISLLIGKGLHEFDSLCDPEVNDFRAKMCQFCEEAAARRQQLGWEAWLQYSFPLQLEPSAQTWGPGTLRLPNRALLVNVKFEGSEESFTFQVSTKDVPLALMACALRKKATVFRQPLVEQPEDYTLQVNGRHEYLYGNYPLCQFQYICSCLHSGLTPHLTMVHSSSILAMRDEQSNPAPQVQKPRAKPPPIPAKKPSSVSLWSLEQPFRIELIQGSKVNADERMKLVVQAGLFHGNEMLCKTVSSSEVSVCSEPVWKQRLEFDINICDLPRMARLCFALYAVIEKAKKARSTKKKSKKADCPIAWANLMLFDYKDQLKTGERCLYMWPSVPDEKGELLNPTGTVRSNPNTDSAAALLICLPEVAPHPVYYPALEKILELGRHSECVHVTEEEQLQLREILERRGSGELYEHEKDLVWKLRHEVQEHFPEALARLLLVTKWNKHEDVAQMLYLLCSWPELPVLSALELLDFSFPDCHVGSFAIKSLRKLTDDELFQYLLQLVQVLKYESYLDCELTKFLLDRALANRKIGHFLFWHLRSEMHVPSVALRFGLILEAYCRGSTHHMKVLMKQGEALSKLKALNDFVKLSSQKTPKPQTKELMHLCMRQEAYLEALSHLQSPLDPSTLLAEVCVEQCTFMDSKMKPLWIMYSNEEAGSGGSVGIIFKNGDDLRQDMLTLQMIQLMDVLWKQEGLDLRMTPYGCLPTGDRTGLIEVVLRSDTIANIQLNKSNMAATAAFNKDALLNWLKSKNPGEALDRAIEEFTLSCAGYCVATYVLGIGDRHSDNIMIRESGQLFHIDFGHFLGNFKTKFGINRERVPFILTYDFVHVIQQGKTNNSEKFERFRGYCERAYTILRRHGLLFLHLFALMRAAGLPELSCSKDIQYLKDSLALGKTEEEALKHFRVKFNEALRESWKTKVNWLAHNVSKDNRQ
- Sequence (P27986 whole entry partner): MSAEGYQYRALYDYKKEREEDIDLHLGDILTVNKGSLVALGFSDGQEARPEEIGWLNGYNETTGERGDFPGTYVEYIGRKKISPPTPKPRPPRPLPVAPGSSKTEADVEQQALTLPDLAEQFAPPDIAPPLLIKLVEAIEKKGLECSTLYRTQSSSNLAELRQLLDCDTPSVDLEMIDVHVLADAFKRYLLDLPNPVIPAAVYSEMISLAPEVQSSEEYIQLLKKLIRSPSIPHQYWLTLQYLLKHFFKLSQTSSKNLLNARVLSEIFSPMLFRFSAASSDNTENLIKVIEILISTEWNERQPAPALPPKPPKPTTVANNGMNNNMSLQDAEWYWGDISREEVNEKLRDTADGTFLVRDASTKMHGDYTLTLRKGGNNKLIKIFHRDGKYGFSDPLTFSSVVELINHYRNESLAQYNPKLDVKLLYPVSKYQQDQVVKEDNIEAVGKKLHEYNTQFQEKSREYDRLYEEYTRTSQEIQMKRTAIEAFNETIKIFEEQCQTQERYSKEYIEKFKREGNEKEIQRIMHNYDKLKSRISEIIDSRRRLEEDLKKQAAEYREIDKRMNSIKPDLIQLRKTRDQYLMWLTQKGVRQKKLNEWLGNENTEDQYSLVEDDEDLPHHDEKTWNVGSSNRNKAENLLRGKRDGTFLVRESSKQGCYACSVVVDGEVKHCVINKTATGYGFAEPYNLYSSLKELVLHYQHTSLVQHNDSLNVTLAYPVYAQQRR
- method_summary: Biochemical assay using 200 μM ATP, Delta;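 also: radiometric filter-binding assay: PI3Kδ transfers ³²P from γ-[³²P]ATP onto PIP2/PS liposomes, counted by scintillation, enzyme-only wells as positive control, no-enzyme wells as background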
property: log10(IC50) (log10 of the value in nM)
# values: log10(IC50), units nM

{"columns": ["compound", "log10(IC50)"],
 "data": [
  ["O=c1c2ccccc2nc(CSc2ncnc3[nH]ncc23)n1-c1ccccc1Cl [Compound D-999, reference compound]", 4.88],
  ["O=c1c2cc(F)c(F)cc2nc(CSc2ncnc3[nH]cnc23)n1-c1ccccc1Cl", 3.60],
  ["O=c1c2ccccc2nc(CSc2ncnc3[nH]cnc23)n1-c1ccccc1", 2.95],
  ["Cc1cccc2nc(CSc3ncnc4[nH]cnc34)n(-c3ccccc3F)c(=O)c12", 2.30],
  ["COc1ccccc1-n1c(CSc2ncnc3[nH]cnc23)nc2ccccc2c1=O", 3.61]
]}

Memo: Nc1ncnc2c1ncn2Cc1nc2cccc(Cl)c2c(=O)n1-c1ccccc1-c1ccccc1 , reported log10(IC50): 2.85

Memo: O=c1c2c(Cl)cccc2nc(CSc2ncnc3[nH]cnc23)n1-c1ccccc1Cl , reported log10(IC50): 2.51

Memo: O=c1c2c(Cl)cccc2nc(CSc2ncnc3[nH]cnc23)n1-c1ccccc1-c1ccccc1 , reported log10(IC50): 2.71

###

Measured Alpha/Delta Ratio, listed per entry.
- test_system: PI3Kα (Homo sapiens, UniProt P42336)
- Construct: His tag (pFastbac HTb vector) (N); FLAG; made in house; host or cells: Sf21 insect cells (baculovirus)
- Sequence (P42336 whole entry, one chain of several): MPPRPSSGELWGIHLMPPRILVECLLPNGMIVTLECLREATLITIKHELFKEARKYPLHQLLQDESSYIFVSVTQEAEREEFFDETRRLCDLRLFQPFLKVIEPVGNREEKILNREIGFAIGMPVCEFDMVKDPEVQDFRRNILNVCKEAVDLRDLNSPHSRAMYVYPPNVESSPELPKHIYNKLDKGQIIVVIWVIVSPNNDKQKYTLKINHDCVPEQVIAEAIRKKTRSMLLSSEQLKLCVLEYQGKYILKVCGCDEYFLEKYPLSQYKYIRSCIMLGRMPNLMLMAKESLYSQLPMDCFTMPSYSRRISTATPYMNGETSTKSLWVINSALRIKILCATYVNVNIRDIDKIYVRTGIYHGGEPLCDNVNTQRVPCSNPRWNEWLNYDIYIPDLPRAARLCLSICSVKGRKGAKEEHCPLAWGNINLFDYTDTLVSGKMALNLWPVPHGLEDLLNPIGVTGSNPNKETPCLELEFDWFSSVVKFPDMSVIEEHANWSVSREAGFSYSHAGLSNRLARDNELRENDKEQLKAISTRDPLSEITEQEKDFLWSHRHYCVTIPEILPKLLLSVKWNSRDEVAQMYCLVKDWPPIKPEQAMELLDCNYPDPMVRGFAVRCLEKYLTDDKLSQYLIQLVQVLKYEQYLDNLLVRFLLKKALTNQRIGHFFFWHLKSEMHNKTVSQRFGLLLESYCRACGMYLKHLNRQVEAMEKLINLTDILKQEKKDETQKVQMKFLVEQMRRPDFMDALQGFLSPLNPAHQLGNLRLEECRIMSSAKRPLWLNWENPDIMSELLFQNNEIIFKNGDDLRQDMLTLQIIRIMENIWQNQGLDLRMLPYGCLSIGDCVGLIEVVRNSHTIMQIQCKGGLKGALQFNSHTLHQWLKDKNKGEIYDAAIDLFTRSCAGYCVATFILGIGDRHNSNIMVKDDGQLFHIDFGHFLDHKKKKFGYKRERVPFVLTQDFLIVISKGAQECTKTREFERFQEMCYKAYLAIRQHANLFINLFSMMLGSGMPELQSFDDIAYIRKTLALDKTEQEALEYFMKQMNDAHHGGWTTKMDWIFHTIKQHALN
- method_summary: Biochemical assay of PI3K potency and selectivity using 20 μM ATP, Alpha
- assay_conditions: 20 μM ATP; ratio of IC50 values; > = hypothetical ratio with 100 μM substituted for the missing IC50

Illustrative cases are given below, each with its answer.
{"columns": ["compound", "Alpha/Delta Ratio"],
 "data": [
  ["Nc1ncnc2c1ncn2Cc1nc2c(Cl)cccc2c(=O)n1-c1ccccc1Cl [Compound D-008]", ">85"],
  ["Cc1cccc2nc(CSc3ncnc4[nH]cnc34)n(-c3ccccc3F)c(=O)c12 [Compound D-031]", ">833"],
  ["CC(=O)O.O=c1c2ccccc2nc(CSc2ncnc3[nH]cnc23)n1N1CCOCC1 [Compound D-039]", ">111"],
  ["Nc1ncnc2c1ncn2Cc1nc2cc(F)ccc2c(=O)n1-c1ccccc1Cl [Compound D-003]", 22]
]}

The compound Cc1cccc2nc(CSc3ncnc4[nH]cnc34)n(-c3ccccc3C(C)C)c(=O)c12 [Compound D-035] , tested on PI3Kα (Homo sapiens, UniProt P42336), showed Alpha/Delta Ratio of 199

The compound CCCCn1c(CSc2ncnc3[nH]cnc23)nc2ccccc2c1=O [Compound D-038] , tested on PI3Kα (Homo sapiens, UniProt P42336), showed Alpha/Delta Ratio of >167

The compound O=c1c2ccc([N+](=O)[O-])cc2nc(CSc2ncnc3[nH]cnc23)n1-c1ccccc1Cl [Compound D-023] , tested on PI3Kα (Homo sapiens, UniProt P42336), showed Alpha/Delta Ratio of >4

The compound O=c1c2ccccc2nc(CSc2ncnc3[nH]ncc23)n1-c1ccccc1Cl [Compound D-999, reference compound] , tested on PI3Kα (Homo sapiens, UniProt P42336), showed Alpha/Delta Ratio of 2.2

###

- test_system: PI3Kγ (Homo sapiens, UniProt P48736)
- Construct: His tag (pFastbac HTb vector) (N); FLAG (N); made in house; host or cells: Sf21 insect cells (baculovirus)
- Sequence (P48736 whole entry): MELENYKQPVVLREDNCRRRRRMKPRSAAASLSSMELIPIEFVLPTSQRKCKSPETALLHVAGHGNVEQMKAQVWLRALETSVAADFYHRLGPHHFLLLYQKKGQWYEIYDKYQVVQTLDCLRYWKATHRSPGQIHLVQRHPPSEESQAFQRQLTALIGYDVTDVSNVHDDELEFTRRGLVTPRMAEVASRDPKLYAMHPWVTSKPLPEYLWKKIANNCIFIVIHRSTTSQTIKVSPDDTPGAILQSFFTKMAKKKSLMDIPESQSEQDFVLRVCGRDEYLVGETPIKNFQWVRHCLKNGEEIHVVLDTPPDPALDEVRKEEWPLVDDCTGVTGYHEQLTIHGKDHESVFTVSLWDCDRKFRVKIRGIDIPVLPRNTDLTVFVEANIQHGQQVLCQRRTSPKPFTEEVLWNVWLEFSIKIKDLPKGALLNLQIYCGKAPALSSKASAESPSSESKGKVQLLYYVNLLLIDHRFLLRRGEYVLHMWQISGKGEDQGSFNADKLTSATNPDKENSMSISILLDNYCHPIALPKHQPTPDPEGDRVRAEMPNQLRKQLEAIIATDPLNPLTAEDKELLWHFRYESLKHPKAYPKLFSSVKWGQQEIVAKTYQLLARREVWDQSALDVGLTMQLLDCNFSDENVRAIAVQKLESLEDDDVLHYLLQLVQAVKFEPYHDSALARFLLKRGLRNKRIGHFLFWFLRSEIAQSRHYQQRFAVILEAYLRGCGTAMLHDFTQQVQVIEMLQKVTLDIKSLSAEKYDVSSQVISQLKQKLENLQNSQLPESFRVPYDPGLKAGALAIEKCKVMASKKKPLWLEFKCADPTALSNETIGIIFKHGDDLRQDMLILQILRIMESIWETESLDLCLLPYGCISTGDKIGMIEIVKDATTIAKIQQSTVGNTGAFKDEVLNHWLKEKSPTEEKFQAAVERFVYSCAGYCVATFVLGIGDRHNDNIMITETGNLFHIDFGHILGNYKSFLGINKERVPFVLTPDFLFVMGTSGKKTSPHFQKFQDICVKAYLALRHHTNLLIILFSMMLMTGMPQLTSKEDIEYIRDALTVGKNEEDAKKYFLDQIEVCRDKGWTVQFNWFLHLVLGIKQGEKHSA
- method_summary: Biochemical assay using 200 μM ATP, Gamma
Outcome: fulfilled for Gamma/Delta Ratio of at least 30; not fulfilled for anything lower.

Reference set (2 entries):
{"columns": ["compound", "label_class"],
 "data": [
  ["O=c1c2c(Cl)cccc2nc(CSc2ncnc3[nH]cnc23)n1-c1ccccc1Cl [Compound D-025]", "not fulfilled"],
  ["O=c1c2cc3ccccc3cc2nc(CSc2ncnc3[nH]cnc23)n1-c1ccccc1Cl [Compound D-019]", "not fulfilled"]
]}

Please check the record O=c1c2c(F)cccc2nc(CSc2ncnc3[nH]cnc23)n1-c1ccccc1Cl [Compound D-015] and state if its Gamma/Delta Ratio is at or above 30.
fulfilled

Please check the record O=c1c2ccccc2nc(CSc2ncnc3[nH]ncc23)n1-c1ccccc1Cl [Compound D-999, reference compound] and state if its Gamma/Delta Ratio is at or above 30.
not fulfilled

###

- test_system: PI3Kβ (Homo sapiens)
- Construct: His tag (pFastbac HTa vector) (N); FLAG (N); made in house; host or cells: Sf21 insect cells (baculovirus)
- method_summary: Biochemical assay using 200 μM ATP, Beta
Measured Beta/Delta Ratio, listed per entry.
Returns: the value as a bare number; no unit string appended.

{"columns": ["smiles_input", "Beta/Delta Ratio"],
 "data": [
  ["Nc1ncnc2c1ncn2Cc1nc2cccc(Cl)c2c(=O)n1-c1ccccc1-c1ccccc1", 26]
]}

The compound O=c1c2cc3ccccc3cc2nc(CSc2ncnc3[nH]cnc23)n1-c1ccccc1Cl , tested on PI3Kβ (Homo sapiens), showed Beta/Delta Ratio of 3

The compound Cc1cccc2nc(CSc3ncnc4[nH]cnc34)n(-c3ccccc3F)c(=O)c12 , tested on PI3Kβ (Homo sapiens), showed Beta/Delta Ratio of 707

The compound COc1ccccc1-n1c(CSc2ncnc3[nH]cnc23)nc2ccccc2c1=O , tested on PI3Kβ (Homo sapiens), showed Beta/Delta Ratio of 36

###

- test_system: PI3Kγ (Homo sapiens, UniProt P48736)
- Construct: His tag (pFastbac HTb vector) (N); FLAG (N); made in house; host or cells: Sf21 insect cells (baculovirus)
- method_summary: Biochemical assay using 200 μM ATP, Gamma
property: pIC50
Please report pIC50 as the negative decimal logarithm of the molar concentration, giving only the number.

{"columns": ["compound", "property", "observed_result"],
 "data": [
  ["Cc1cccc2nc(Cn3cnc4c(N)ncnc43)n(-c3ccccc3C(C)C)c(=O)c12 [Compound D-029]", "pIC50", 4.89],
  ["O=c1c2c(Cl)cccc2nc(CSc2ncnc3[nH]cnc23)n1-c1ccccc1F [Compound D-011]", "pIC50", 4.21],
  ["Cc1cccc2nc(CSc3ncnc4[nH]cnc34)n(-c3ccccc3C(C)C)c(=O)c12 [Compound D-035]", "pIC50", 5.17]
]}

The compound O=c1c2ccccc2nc(CSc2ncnc3[nH]cnc23)n1-c1ccccc1Cl [Compound D-000] , tested on PI3Kγ (Homo sapiens, UniProt P48736), showed pIC50 of 4.46

The compound O=c1c2cc(F)ccc2nc(CSc2ncnc3[nH]cnc23)n1-c1ccccc1Cl [Compound D-028] , tested on PI3Kγ (Homo sapiens, UniProt P48736), showed pIC50 of 4.54

The compound Cc1cccc2nc(Cn3cnc4c(N)ncnc43)n(-c3ccccc3F)c(=O)c12 [Compound D-048] , tested on PI3Kγ (Homo sapiens, UniProt P48736), showed pIC50 of 3.91

The compound O=c1c2c(Cl)cccc2nc(CSc2ncnc3[nH]cnc23)n1-c1ccccc1Cl [Compound D-025] , tested on PI3Kγ (Homo sapiens, UniProt P48736), showed pIC50 of 5.11

The compound COc1ccccc1-n1c(CSc2ncnc3[nH]cnc23)nc2cccc(C)c2c1=O [Compound D-047] , tested on PI3Kγ (Homo sapiens, UniProt P48736), showed pIC50 of 5.35

The compound COc1ccccc1-n1c(CSc2ncnc3[nH]cnc23)nc2ccccc2c1=O [Compound D-036] , tested on PI3Kγ (Homo sapiens, UniProt P48736), showed pIC50 of 4.14

###

- test_system: PI3Kα (Homo sapiens)
- Construct: His tag (pFastbac HTb vector) (N); FLAG; made in house; host or cells: Sf21 insect cells (baculovirus)
- method_summary: Biochemical assay of PI3K potency and selectivity using 20 μM ATP, Alpha
- assay_conditions: 20 μM ATP; read-out: Alpha IC50
Note to self: use 1.0 only for IC50 readings below 70 µM; a reading exactly at 70 µM still gets 0.0.

{"columns": ["compound", "label_class"],
 "data": [
  ["Cc1cccc2nc(CSc3ncnc4[nH]cnc34)n(-c3ccccc3C(C)C)c(=O)c12", 1.0]
]}

Strictly below 70 µM in IC50? O=c1c2cccc(Cl)c2nc(CSc2ncnc3[nH]cnc23)n1-c1ccccc1Cl
0.0

Strictly below 70 µM in IC50? CC(=O)O.CN1CCN(n2c(CSc3ncnc4[nH]cnc34)nc3ccccc3c2=O)CC1 [Compound D-044, acetate salt]
0.0

Strictly below 70 µM in IC50? Nc1ncnc2c1ncn2Cc1nc2cc(F)ccc2c(=O)n1-c1ccccc1Cl
0.0

Strictly below 70 µM in IC50? O=c1c2cc3ccccc3cc2nc(CSc2ncnc3[nH]cnc23)n1-c1ccccc1Cl
1.0

Strictly below 70 µM in IC50? COc1ccccc1-n1c(CSc2ncnc3[nH]cnc23)nc2cccc(C)c2c1=O
1.0

Strictly below 70 µM in IC50? Cc1cccc2nc(CSc3ncnc4[nH]cnc34)n(-c3ccccc3F)c(=O)c12
0.0
